Just for reference, ChEMBL document CHEMBL5223191 is where these values come from.

Experiment: Kinetic solubility of the compound in phosphate buffer saline at pH 7.4 at 200 uM by LC-UV analysis
Type: physicochemical
Conditions: read-out: Kinetic_solubility
ASSAY ENDPOINT: solubility kinetic at 200 µM (µM)
Give the quantity in µM, number only.

What solubility kinetic at 200 µM value was documented for this compound, `N[C@@H]1c2ccccc2CC12CCN(c1nc3nc(Sc4cccnc4C(F)(F)F)cnc3[nH]1)CC2` ?
154

====

Biological target: Tyrosine-protein phosphatase non-receptor type 11 (Homo sapiens)
Test: Allosteric inhibition of IRS1 peptide-activated human recombinant SHP2 (Met1 to Leu525) expressed in Escherichia coli assessed as inhibition of dephosphorylation of 6,8-difluoro-4-methylumbelliferyl phosphate using DiFMUP as substrate preincubated with enzyme for 30 mins followed by substrate addition and measured after 30 mins by DiFMUP assay
Listing of entries alongside the reported log10(IC50).
Hey, these are logged values: log10 of IC50, nM being the unit before logging.

Some molecules with recorded log10(IC50):
STRUCTURE SMILES	log10(IC50)
CC1(N)CCN(c2nc3ncc(-c4cccc(Cl)c4Cl)nc3[nH]2)CC1	2.90
Cn1c(N2CCC(C)(N)CC2)nc2ncc(Sc3cccnc3C(F)(F)F)nc21	3.13
Cc1nc2nc(N3CCC(C)(N)CC3)[nH]c2nc1Sc1cccc(Cl)c1Cl	2.64
C[C@@H]1OCC2(CCN(c3nc4nc(Sc5cccnc5C(F)(F)F)cnc4[nH]3)CC2)[C@@H]1N	1.81
CC1(N)CCN(c2nc3cnc(Sc4cccnc4C(F)(F)F)nc3[nH]2)CC1	2.91
N[C@@H]1CCCC12CCN(c1nc3nc(Sc4cccnc4C(F)(F)F)cnc3[nH]1)CC2	2.46
CNc1nccc(Sc2cnc3[nH]c(N4CCC5(CC4)Cc4ccccc4[C@H]5N)nc3n2)c1Cl	0.78

What log10(IC50) value was documented for this molecule, `Nc1nccc(Sc2cnc3[nH]c(N4CCC5(CC4)Cc4ccccc4[C@H]5N)nc3n2)c1Cl` ?
0.60

====

Experiment: Half life in Sprague-Dawley rat at 0.5 mg/kg, iv measured for 24 hrs by LC-MS/MS analysis
Format: ADME, organism-based
Settings: in vivo
ASSAY ENDPOINT: half-life (min)
Give the quantity in min, number only.

What half-life value was documented for this compound, `N[C@@H]1c2ccccc2CC12CCN(c1nc3nc(Sc4cccnc4C(F)(F)F)cnc3[nH]1)CC2` ?
24

====

Test: Apparent passive permeability of the compound in phosphate buffer saline at pH 7.4 at 5 uM incubated for 4 hrs by PAMPA assay
Type: ADME
Listing of entries alongside the reported Papp at 4 h, 5 µM.
Respond with a number, then the unit of measure.

STRUCTURE SMILES	Papp at 4 h, 5 µM
N[C@@H]1c2ccccc2CC12CCN(c1nc3nc(Sc4cccnc4C(F)(F)F)cnc3[nH]1)CC2	0.027 ×10⁻⁶ cm/s

Shift focus to the following entry.
What Papp at 4 h, 5 µM value was documented for this compound, `CNc1nccc(Sc2cnc3[nH]c(N4CCC5(CC4)Cc4ccccc4[C@H]5N)nc3n2)c1Cl` ?
0.02 ×10⁻⁶ cm/s

====

Assay: Intrinsic clearance in human liver microsomes at 1 uM measured for 60 mins in presence of NADPH by LC-MS/MS analysis
Type: ADME, Microsome
Settings: read-out: CLH
ASSAY ENDPOINT: CLint scaled at 1 µM (mL/min/kg)
Give the quantity in mL/min/kg, number only.

What CLint scaled at 1 µM value was documented for this molecule, `N[C@@H]1c2ccccc2CC12CCN(c1nc3nc(Sc4cccnc4C(F)(F)F)cnc3[nH]1)CC2` ?
74

====

Assay: Oral bioavailability in BALB/c mouse at 50 mg/kg measured for 24 hrs by LC-MS/MS analysis
Assay type: ADME, organism-based
Details: in vivo
ASSAY ENDPOINT: bioavailability (%)
Give the quantity in %, number only.

What bioavailability value was documented for this compound, `CNc1nccc(Sc2cnc3[nH]c(N4CCC5(CC4)Cc4ccccc4[C@H]5N)nc3n2)c1Cl` ?
7

====

Listing of entries alongside the reported pIC50.
Biological target: Tyrosine-protein phosphatase non-receptor type 11 (Homo sapiens, UniProt Q06124)
Sequence (Q06124 whole entry): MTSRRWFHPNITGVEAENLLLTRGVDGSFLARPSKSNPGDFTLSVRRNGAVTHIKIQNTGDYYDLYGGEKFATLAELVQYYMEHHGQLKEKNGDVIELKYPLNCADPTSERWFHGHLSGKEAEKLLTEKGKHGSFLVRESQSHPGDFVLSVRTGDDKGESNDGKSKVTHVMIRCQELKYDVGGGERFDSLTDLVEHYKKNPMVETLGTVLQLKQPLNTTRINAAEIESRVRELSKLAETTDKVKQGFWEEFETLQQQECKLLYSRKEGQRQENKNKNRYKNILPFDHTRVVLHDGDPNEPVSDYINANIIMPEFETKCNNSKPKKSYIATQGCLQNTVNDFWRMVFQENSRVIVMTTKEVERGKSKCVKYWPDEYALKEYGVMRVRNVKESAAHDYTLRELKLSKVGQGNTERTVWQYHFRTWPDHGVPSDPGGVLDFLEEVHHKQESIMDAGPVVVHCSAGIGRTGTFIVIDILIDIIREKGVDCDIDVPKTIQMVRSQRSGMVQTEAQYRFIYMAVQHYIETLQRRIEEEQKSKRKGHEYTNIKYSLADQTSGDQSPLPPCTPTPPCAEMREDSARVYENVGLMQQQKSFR
Experiment: Allosteric inhibition of IRS1 peptide-activated human recombinant SHP2 (Met1 to Leu525) expressed in Escherichia coli assessed as inhibition of dephosphorylation of 6,8-difluoro-4-methylumbelliferyl phosphate using DiFMUP as substrate preincubated with enzyme for 30 mins followed by substrate addition and measured after 30 mins by DiFMUP assay
In simple prose, pIC50 is minus the logarithm base ten of a concentration in moles per litre.

Some molecules with recorded pIC50:
MOLECULE	pIC50
CC1(N)CCN(c2nc3nc(Sc4cccnc4C(F)(F)F)cnc3s2)CC1	6.05
CC1(N)CCN(c2nc3ncc(Sc4cccnc4C(F)(F)F)nc3[nH]2)CC1	7.13
N[C@@H]1c2ccccc2CC12CCN(c1nc3nc(Sc4cccnc4C(F)(F)F)cnc3[nH]1)CC2	8.30
CC1(N)CCN(c2nc3ncc(Oc4cccc(Cl)c4Cl)nc3[nH]2)CC1	6.28
N[C@@H]1c2ccccc2CC12CCN(c1nc3nc(Sc4ccncc4Cl)cnc3[nH]1)CC2	8.52

What pIC50 value was documented for this molecule, `Cn1c(N2CCC(C)(N)CC2)nc2nc(Sc3cccnc3C(F)(F)F)cnc21` ?
6.39

What pIC50 value was documented for this molecule, `NC1CCN(c2nc3nc(Sc4cccnc4C(F)(F)F)cnc3[nH]2)CC1` ?
6.18

What pIC50 value was documented for this molecule, `CC1(N)CCN(c2nc3ncc(Sc4cccc(Cl)c4Cl)nc3[nH]2)CC1` ?
7.33

What pIC50 value was documented for this molecule, `CNC1CCN(c2nc3nc(Sc4cccnc4C(F)(F)F)cnc3[nH]2)CC1` ?
5.93

What pIC50 value was documented for this molecule, NC1CCCN(c2nc3nc(Sc4cccnc4C(F)(F)F)cnc3[nH]2)C1 (stereo not drawn) ?
6.36

What pIC50 value was documented for this molecule, `CC1(N)CCN(c2cnc(Sc3cccnc3C(F)(F)F)c(N)n2)CC1` ?
6.85
